target: HLA-A0101 (Homo sapiens, UniProt P04439, A114D/A174V/A182V/D101N/D185E/E176A/E190D/L180R/Q94H/R68K/S129P/T187R/V100A/V91M/W191G); construct: expressed in transfected cells; host or cells: HMy2.CIR; assay: Peptide competitive binding assay, HMy2.CIR cells expressing A0101
Where no end group is shown, it is not given here.
measurementLabel: IC50

Need IC50, item EADGKVSQNY [Peptide P67]
5 to 15 µM

====

For each record, write down the corresponding pIC50.
target: HLA-A0201 (Homo sapiens, UniProt P04439, D140Y/D185E/D98H/E176V/E277Q/G131W/G231S/I119V/I121R/I166T/I218V/L300P/L318F/N151K/N90K/P208A/P217A/Q86G/Q94H/R138H/R169H/T345S); construct: expressed in transfected cells; host or cells: HMy2.CIR; experiment: cell-based; type: binding; conditions: A0201; class from inhibition at 5 and 15 μM of FITC-labeled reference peptide binding; read-out: Affinity
pIC50: −log10 of the molar value. Where no end group is shown, it is not given here.

So what's the measured pIC50 for this one? SLAEGEIII [Peptide P3]
4.82 to 5.30

Do the same for SLVDTIAIAV [Peptide P1] please
4.82 to 5.30

====

target: HLA-A2402 (Homo sapiens, UniProt P04439, D101N/D140Y/D185E/E176V/E190D/F33S/G103R/G107R/I119L/I121M/I306V/K335N/L105A/L180Q/L300P/N151K/N90K/Q86E/Q94H/R106L/R138H/R89G/T104I/T345S/V100E/W191G/Y123F); assay: cell-based; type: binding; conditions: A2402; peptide 15 μM vs FITC-labeled reference peptide 300 nM, 24 h, 4°C, flow cytometry
Where no end group is shown, it is not given here.
measurementLabel: inhibition at 15 µM (%)
Could you give me the number in %? Just the number is fine.

So what's the measured inhibition at 15 µM for this one? KYRLKHLVW [Peptide P54]
79.5

Same question, MYSPVSILDI [Peptide P53] this time
98.1

// repeat for WWMEYWQATW [Peptide P57] and report
70.7

====

What IC50 was measured for each of the following?
target: HLA-A3101 (Homo sapiens, UniProt P04439, A270S/D185E/E176V/E277Q/F33T/G231S/G80R/H175R/I121M/I218V/I322F/K168Q/L300P/L318F/M331R/P217A/Q94H/R138Q/T323A/T345S/T97I/V358M); construct: expressed in transfected cells; host or cells: HMy2.CIR; assay: Peptide competitive binding assay, HMy2.CIR cells expressing A3101; settings: A3101; class from inhibition at 5 and 15 μM of FITC-labeled reference peptide binding; read-out: Affinity
Where no end group is shown, it is not given here.

Can you look up the measured IC50 of RAKRRVVER [Peptide P98] for me?
5 to 15 µM

Follow-up item: KAREFSSER [Peptide P100]
5 to 15 µM

====

biological target: HLA-A2402 (Homo sapiens, UniProt P04439, D101N/D140Y/D185E/E176V/E190D/F33S/G103R/G107R/I119L/I121M/I306V/K335N/L105A/L180Q/L300P/N151K/N90K/Q86E/Q94H/R106L/R138H/R89G/T104I/T345S/V100E/W191G/Y123F); test: cell-based; format: binding; conditions: A2402; peptide 5 μM vs FITC-labeled reference peptide 300 nM, 24 h, 4°C, flow cytometry
// no strictly below 10% in 5-μM inhibition (%); yes otherwise

Check this sequence for 5-μM inhibition (%) at or above 10%: IWGKTPKFRL [Peptide P62]
yes

Let us now turn to WYIKIFIII [Peptide P48]
no

How about this sequence: RQGTISFNF [Peptide P61]
yes

Same thing, different sequence: IYKRWIILGL [Peptide P56]
yes

Repeat with WYIKIFIMI [Peptide P51]
no

Record: HYMLKHLVW [Peptide P55]
yes
